experiment: Residual antibacterial activity after incubation with 90% plasma (Table 4); type: in vitro ADME, male Sprague-Dowley rat; conditions: 90% plasma; 90% rat plasma, 90 minute

{"columns": ["compound", "unitsOfMeasure", "remaining at 1.5 h"],
 "data": [
  ["O=C(Cc1cccs1)N[C@@H]1C(=O)N2C(C(=O)[O-])=C(C[n+]3ccccc3)CS[C@H]12 [Cephaloridine, reference compound]", "%", 72.2],
  ["O=C(O)CCc1nnc(SCC2=C(C(=O)O)N3C(=O)[C@@H](NC(=O)[C@H](NC(=O)c4cnccc4O)c4ccccc4)[C@H]3SC2)s1", "%", 102],
  ["O=C(O)C1=C(CSc2nnc(SCCS(=O)(=O)O)s2)CS[C@@H]2[C@H](NC(=O)[C@H](NC(=O)c3cnccc3O)c3ccccc3)C(=O)N12", "%", 100],
  ["O=C(O)CSc1nnc(SCC2=C(C(=O)O)N3C(=O)[C@@H](NC(=O)[C@H](NC(=O)c4cnccc4O)c4ccccc4)[C@H]3SC2)s1", "%", 103],
  ["CC(=O)OCC1=C(C(=O)O)N2C(=O)[C@@H](NC(=O)Cc3cccs3)[C@H]2SC1 [Cephalotin, reference compound]", "%", 36]
]}
